Catalogue of molecules with associated z-score
assay: cell viability in Huh7 cells, primary screen, cytotoxicity control for HCV replication inhibitor project, CellTiter-Glo luminescence, basal, 48 h (AID 1143); settings: Huh7 HCV replicon, higher = more signal, called active from +8 up or from −8 down;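 note: Huh7 hepatoma cells carrying a hepatitis C replication reporter with no stimulus; test concentration not given here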
// print number alone

Sample answers from the record:
molecule	metric name	measured number
COC(=O)[C@@]1(Cc2ccc(OC)cc2)[C@@H]2C(=CC(=O)[C@H]2CC(=O)C(=O)N(C)C)CN1C(=O)c1ccccc1	z-score	-3.7
CN(C)C(=O)C1N=C(c2ccc(OCCCO)cc2)N(c2ccccc2)O1 (centres undefined)	z-score	-1.17
[N-]=[N+]=NCc1ccccc1[C@@H]1OC(c2ccc(OCCCO)cc2)=N[C@]1(CCS(=O)(=O)c1ccccc1)C(=O)NCC(O)CO (some centres undefined)	z-score	-0.866
O=C(NCC(F)(F)F)[C@@H]1c2ccccc2C(=O)N(Cc2cc(F)cc(C(F)(F)F)c2)[C@H]1c1ccc(CO)cc1	z-score	-1.77
C=CC1c2cc(O)c(OC)cc2CCN1Cc1cc2c(cc1Br)OCO2 (centres undefined)	z-score	-5.24

The molecule listed as C=CCC(OC(C)=O)[C@@H]1[C@@H](N(Cc2ccc(-c3ccccc3)cc2)C(=O)Cc2ccc(F)cc2)c2cc(OCCCO)ccc2N1C(=O)Cc1ccc(OC)cc1 (some centres undefined) shows z-score equal to 0.145

get_value(item= CO[C@H]1O[C@H](CO)[C@@H](OC(=O)Nc2ccccc2-c2ccccc2)[C@H](OC(=O)Nc2ccc3c(c2)OCO3)[C@H]1OC(=O)Nc1ccc2c(c1)OCO2 , readout=z-score) returns -1.48

Record CC1=C[C@@]2(CO)C(=O)[C@]3(CO3)[C@@H]1[C@H]1[C@]2(C)C=C(CO)C(=O)[C@]12CO2 , field z-score: -0.0354

Recorded z-score (molecule CC1=C([C@H](O)CCc2ccccc2)[C@H](CO)[C@@H]2C(=O)N(C)C(=O)[C@@H]2C1 ): -0.0547

The recorded z-score for entry O=C1O[C@@H](c2ccccc2)[C@@H](c2ccccc2)N2[C@@H](c3ccc(O)cc3)[C@]3(C(=O)Nc4ccc(C#CC5=CCCCC5)cc43)[C@@H](C(=O)NC[C@H](O)c3ccccc3)[C@H]12 equals -3.48

Measured z-score of C=CCOC(=O)[C@H]1[C@@H]2C(=O)O[C@@H](c3ccccc3)[C@@H](c3ccccc3)N2[C@@H](c2ccc(OCCOC(=O)[C@@H]3C[C@@H]4C(=O)N5CCC[C@H]5C(=O)N4[C@@H]3c3ccc(O)cc3)cc2)[C@]12C(=O)Nc1ccc(I)cc12 : -0.648

For record O=C1OCCC/C=C\[C@H]2OC34C=CCN(CCN5CCOCC5)C(=O)[C@H]3N(CCCCCCO)C(=O)[C@@H]4C12 (some centres undefined) the listed z-score is -0.129

Lookup result for CN(C)c1ccc(C(O)C2C=CC3C(=O)N(c4ccccc4)C(=O)C3N2Nc2ccc([N+](=O)[O-])cc2)cc1 (centres undefined) ; measured z-score: -0.619

Data point: C=C(/C(=C/C[C@H](OC(=O)c1ccncc1)c1ccc(CO)o1)c1cc(C(=O)OC)ccc1OC)C(C)C ; z-score = -0.398

* * *

system: Fibrinogen (Alexa647-labelled); test: fibrinogen binders on compound microarrays, profiling panel, artefact control for SMM control-protein annotation, biochemical, small-molecule microarray, 635/667 nm fluorescence (AID 1131); settings: fibrinogen-A647 binding fluorescence, higher = more signal;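 note: z-score merges 667 nm fluorescence with per-spot signal-to-noise over triplicate slides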
Listed next: entries and their corresponding composite z-score.
Please give only the number in your answer, with no unit.

Solved entries:
compound	measured on	composite z-score
CN(C)CCCNC(=O)[C@@]1(C)c2ccccc2C(=O)N(Cc2ccccc2)[C@H]1c1ccc(CO)cc1	Fibrinogen (Alexa647-labelled)	-0.995
C=CCC(OC(C)=O)[C@@H]1[C@@H](N(Cc2cccc3ccccc23)C(=O)Cc2ccc(F)cc2)c2cc(OCCCO)ccc2N1C(=O)c1ccc2ccccc2n1 (some centres undefined)	Fibrinogen (Alexa647-labelled)	0.0688
CC(C)[Si](C#C[Si](C(C)C)(C(C)C)C(C)C)(O[C@H](C)c1cn([C@H](CO)Cc2ccccc2)nn1)C(C)C	Fibrinogen (Alexa647-labelled)	0.259

Now look at this one.
Summary for this compound, Cc1ccc(S[C@]2(C(=O)NCC(F)(F)F)CC(=O)N(Cc3ccccc3C(F)(F)F)[C@@H]2c2ccc(CO)cc2I)cc1 : composite z-score is -0.992

Value source: PubChem BioAssay
